Source: patent US20100184799A1

Tested system: SSTR3 (Homo sapiens, UniProt P32745)
Sequence (P32745 whole entry): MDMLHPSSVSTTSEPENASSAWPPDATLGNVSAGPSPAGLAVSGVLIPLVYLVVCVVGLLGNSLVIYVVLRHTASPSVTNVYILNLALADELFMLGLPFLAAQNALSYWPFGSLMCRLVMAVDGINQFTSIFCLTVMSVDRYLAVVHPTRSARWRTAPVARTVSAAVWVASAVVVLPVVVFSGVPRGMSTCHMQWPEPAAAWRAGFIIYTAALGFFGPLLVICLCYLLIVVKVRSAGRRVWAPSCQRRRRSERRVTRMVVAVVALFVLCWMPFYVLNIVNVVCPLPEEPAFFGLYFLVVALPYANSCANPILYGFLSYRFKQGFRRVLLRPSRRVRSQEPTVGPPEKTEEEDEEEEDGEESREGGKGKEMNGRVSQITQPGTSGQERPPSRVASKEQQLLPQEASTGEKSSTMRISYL
Protocol: SSTR3 functional antagonist assay: cAMP production with FSK + SS-14 in SSTR3 stable CHO cells
Test context: […] FSK + 100 nM SS-14
Readout: EC50 (nM)

Briefly, EC50 measured for Cn1cc(C2(c3nnc(O)o3)N[C@@H](c3nc(-c4ccc(F)cc4)c[nH]3)Cc3c2[nH]c2ccccc32)cn1 (single isomer, unassigned) [Example 19] : 47.5

The value of EC50 measured for the molecule Cc1nc(C2(c3nnc(N)o3)NC(c3nc(-c4ccc(F)cc4)c[nH]3)Cc3c2[nH]c2ccccc32)no1 (mixture of isomers) [Example 56] turned out to be 17.8

Entry Cn1nc(C2(c3cnn(C4CC4)c3)N[C@@H](c3nc(-c4ccc(F)cn4)c[nH]3)Cc3c2[nH]c2ccccc32)oc1=O (single isomer, unassigned) [Example 59] — recorded EC50 = 0.8

# EC50 (molecule: N#Cc1ccc(C2(c3nnc(O)o3)N[C@@H](c3nc(-c4ccc(F)cc4)c[nH]3)Cc3c2[nH]c2ccccc32)cc1 (mixture of isomers) [Example 13] ) is 18.9

P. Cn1nc(C2(c3ccccc3)N[C@@H](c3nc(-c4ccc(F)cc4)c[nH]3)Cc3c2[nH]c2ccccc32)oc1=O (single isomer, unassigned) [Example 1]
Q. Oc1nnc(C2(c3ccccc3)N[C@@H](c3nc(-c4ccc(F)cc4)c[nH]3)Cc3c2[nH]c2ccccc32)o1 (mixture of isomers) [Example 10]
// returns P or Q , whichever has the lower EC50 Lab note: record the label of whichever item you select.
P

---

Tested system: SSTR3 (Homo sapiens)
Protocol: SSTR3 functional antagonist assay: cAMP production with FSK + SS-14 in SSTR3 stable CHO cells
Format: cell-based, human or mouse
Parameters: […]
Test context: […] FSK + 100 nM SS-14
pEC50: −log10 of the molar value.
Readout: pEC50

See these solved cases before continuing.
For record CCn1nc(C2(c3noc(COC)n3)N[C@@H](c3nc(-c4ccc(F)cn4)c[nH]3)Cc3c2[nH]c2ccccc32)oc1=O (single isomer, unassigned) [Example 41] the listed pEC50 is 7.72

The compound identified as CCn1cc(C2(c3nn(C)c(=O)o3)N[C@@H](c3nc(-c4ccc(F)cc4)c[nH]3)Cc3c2[nH]c2ccccc32)cn1 (mixture of isomers) [Example 36] registered its pEC50 at 8.72

Per the record, CCn1nc(C2(c3nnn(C)n3)N[C@@H](c3nc(-c4ccc(F)cn4)c[nH]3)Cc3c2[nH]c2ccccc32)oc1=O (single isomer, unassigned) [Example 48] has pEC50 of 7.20

1. CCn1nc(C2(c3noc(COC)n3)N[C@@H](c3nc(-c4ccc(F)cn4)c[nH]3)Cc3c2[nH]c2ccccc32)oc1=O (single isomer, unassigned) [Example 40]
2. Cn1cc(C2(c3nnc(O)o3)N[C@@H](c3nc(-c4ccc(F)cn4)c[nH]3)Cc3c2[nH]c2ccccc32)cn1 (single isomer, unassigned) [Example 20]
Kindly identify the item with the lower pEC50 figure among these two: 1 and 2 The response must carry the label of the picked entry.
2

---

Tested system: SSTR3 (Homo sapiens, UniProt P32745)
pKi: −log10 of the molar value.
Readout: pKi

Recorded results for 2 compounds are shown here.
Cn1cc(C2(c3nn(C)c(=O)o3)N[C@@H](c3nc(-c4ccc(F)cc4)c[nH]3)Cc3c2[nH]c2ccccc32)cn1 (single isomer, unassigned) has a reported pKi of 8.92

pKi measured on Cn1nc(C2(c3ccccc3)N[C@@H](c3nc(-c4ccc(F)cc4)c[nH]3)Cc3c2[nH]c2ccccc32)oc1=O (single isomer, unassigned) = 7.50

A. Cn1cc(C2(c3nnc(N)o3)N[C@@H](c3nc(-c4ccc(F)cc4)c[nH]3)Cc3c2[nH]c2ccccc32)cn1 (single isomer, unassigned)
B. Cn1nc(C2(c3ccccc3)NC(c3nc(-c4ccc(F)cn4)c[nH]3)Cc3c2[nH]c2ccccc32)oc1=O (single isomer, unassigned)
# compare pKi for A vs B ; return the one with the smaller value State the label of the item chosen.
A
(A: 7.88, B: 8.92)
